Cited source: patent US20100143349A1

- systemTested: T1, HU-RAGE-SA (human, UniProt Q15109 23-342)
- T1 construct: extracellular domain; Directly immobilized on a CM5 chip (~100 RU); also called hRAGE-SA; soluble human streptavidin-tagged RAGE; not shown: streptavidin tag (SA)
- T1 sequence (Q15109 23-342): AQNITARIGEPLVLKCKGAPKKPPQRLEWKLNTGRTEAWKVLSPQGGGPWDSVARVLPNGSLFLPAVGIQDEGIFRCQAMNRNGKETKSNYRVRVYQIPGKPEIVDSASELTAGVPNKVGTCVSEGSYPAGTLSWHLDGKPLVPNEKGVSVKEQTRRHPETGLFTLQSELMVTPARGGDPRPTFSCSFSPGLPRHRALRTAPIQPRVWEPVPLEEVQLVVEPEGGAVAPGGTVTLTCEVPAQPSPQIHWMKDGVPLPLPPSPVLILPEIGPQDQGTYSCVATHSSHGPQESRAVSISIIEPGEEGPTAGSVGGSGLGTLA
- assayText: BIAcore kd against parental M4 scFv-Fc
Catalogue of binders with associated Fold change in kd
# output: bare number, implied unit fold

Study these solved cases before continuing.
-- ask Requested read-out: Fold change in kd. Entry: 10G10 scFv-Fc fusion (Fc fusion, not shown: wild-type human IgG Fc (hinge and constant domains)) DIQMTQSPSSLSASVGDRVTITCRASQDVGIYVNWFQQKPGKAPRRLIYRATNLADGVPSRFSGSRSGTDFTLTISSLQPEDFATYYCLEFDEHPLTFGGGTRVEIKDGGGSGGGGSGGGGSSEVQLVESGGGLVQPGGSLRLSCAASGFTFNNYWMSWVRQAPGKGLEWVASIDNSGENTYYPDSVKDRFTISRDNAKNSLYLQMNSLRAEDTAVYYCARGGDITTGFDYWGQGTLVTVSS
-- reply 0.28

-- ask Next entry: 3D2 scFv-Fc fusion (Fc fusion, not shown: wild-type human IgG Fc (hinge and constant domains)) DIQMTQSPSSLSASVGDRVTITCRASQDVGIYVNWFQQKPGKAPRRLIYRATNLADGVPSRFSGSRSGTDFTLTISSLQPEDFATYYCLEFDEHPLTFGGGTKVEIKDGGGSGGGGSGGGGSSEVQLVESGGGLVQPGGSLRLSCAASGFTFNNYWMTWVRQAPGKGLEWVASIDNSGDNTYYPDSVKDRFTISRDNAKNSLYLQMNSLRAEDTAVYYCARGGDIRVSLDHWGQGTLVTVSS
-- reply 7.4

We next turn to a different binder, shown below.
-- ask Fold change in kd lookup needed for 6B6 scFv-Fc fusion (Fc fusion, Substitutions derived from the printed HCDR3; not shown: wild-type human IgG Fc (hinge and constant domains)) DIQMTQSPSSLSASVGDRVTITCRASQDVGIYVNWFQQKPGKAPRRLIYRATNLADGVPSRFSGSRSGTDFTLTISSLQPEDFATYYCLEFDEHPLTFGGGTKVEIKDGGGSGGGGSGGGGSSEVQLVESGGGLVQPGGSLRLSCAASGFTFNNYWMTWVRQAPGKGLEWVASIDNSGDNTYYPDSVKDRFTISRDNAKNSLYLQMNSLRAEDTAVYYCARGGDIIISLDWWGQGTLVTVSS , thanks.
-- reply 20.8
